Biological target: T1, hPD-1 mIg fusion protein (human; mouse, UniProt Q15116 25-170)
T1 construct: extracellular domain; not shown: CH2-CH3 domain of mouse IgG2a heavy chain (plasmid pmIgG)
T1 sequence (Q15116 25-170): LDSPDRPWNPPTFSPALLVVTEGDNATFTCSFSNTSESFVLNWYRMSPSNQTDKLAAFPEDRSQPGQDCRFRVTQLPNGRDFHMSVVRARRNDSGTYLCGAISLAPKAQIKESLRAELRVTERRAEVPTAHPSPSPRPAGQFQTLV
Assay: SPR Biacore T100, hPD-1mIg immobilised by amine coupling, antibody as analyte
Reported metric: kon (M⁻¹ s⁻¹)
Entry rule: numbers only, all in M⁻¹ s⁻¹.

Consider the worked cases shown below.
[[record]]
binder = "Variant 2 (antibody, V domains shown, Humanized; VH variant a, VK variant b; Constant regions not spelled out; chimeric parent has human IgG4-S228P and human kappa; also called mutant combination 2) VH: EVQLVESGGGLVQPGGSLRLSCAASGFTFSSYTMSWVRQAPGKGLEWVSYISHGGGDTYYADSVKGRFTISRDNSKNTLYLQMNSLRAEDTAVYYCARHSGYERGYYYVMDYWGQGTLVTVSS VL: DIVMTQSPDSLAVSLGERATINCKASESVDYYGFSFLNWFQQKPGQPPKLLIYAASNRESGVPDRFSGSGSGTDFTLTISSLQAEDVAVYYCQQSKEVPWTFGQGTKLEIKR"
reported_metric = "kon"
value_observed = 210000

[[record]]
binder = "Variant 8 (antibody, V domains shown, Humanized; VH variant c, VK variant b; Constant regions not spelled out; also called mutant combination 8) VH: EVKLLESGGGLVQPGGSLRLSCAASGFTFSSYTMSWVRQAPGKGLEWVSYISHGGGDTYYPDSVKGRFTISRDNSKNTLYLQMNSLRAEDTAVYYCARHSGYERGYYYVMDYWGKGTTVTVSS VL: DIVMTQSPDSLAVSLGERATINCKASESVDYYGFSFLNWFQQKPGQPPKLLIYAASNRESGVPDRFSGSGSGTDFTLTISSLQAEDVAVYYCQQSKEVPWTFGQGTKLEIK"
reported_metric = "kon"
value_observed = 222000


In the following, a different binder is considered.
QUERY: Field request: kon | item: Variant 5 (antibody, V domains shown, Humanized; VH variant b, VK variant b; Constant regions not spelled out; chimeric parent has human IgG4-S228P and human kappa; also called mutant combination 5) VH: EVQLVESGGGLVQPGGSLRLSCAASGFTFSSYTMSWVRQAPGKGLEWVSYISHGGGDTYYPDSVKGRFTISRDNSKNTLYLQMNSLRAEDTAVYYCARHSGYERGYYYVMDYWGQGTLVTVSS VL: DIVMTQSPDSLAVSLGERATINCKASESVDYYGFSFLNWFQQKPGQPPKLLIYAASNRESGVPDRFSGSGSGTDFTLTISSLQAEDVAVYYCQQSKEVPWTFGQGTKLEIKR
RESULT: 211000

Reference source for all entries: patent US20210261665A1
